test system: K-562 leukemia; test: NCI-60 one-dose screen, 48 h (100 = growth as untreated, 0 = no growth, -100 = all killed); conditions: 10 µM
This is part of a sample that, as a whole, favours compounds with a hit. Of some 83,000 tested, about 20% had one in any assay.
Grouping rule (growth): LOW (below 20%), MID (20% to below 90%), HIGH (90% or more)

Which class holds CN(C)c1ccc2cc(-c3cc4c(oc3=O)-c3ccccc3OC4O)c(=O)oc2c1 (stereo not drawn) ?
LOW

Class (by measured growth) for `COc1ccc(/C(=C/c2cc(OC)c(OC)cc2[N+](=O)[O-])C(=O)O)cc1`
HIGH

State the class of the molecule shown: `Nc1cc(O)cc(O)c1`
HIGH

Form: Item = `COc1cc(N=C2C(=O)N(Cc3ccccc3)c3ccccc32)cc(OC)c1OC` ; Class = ?
HIGH

Entry CC(Oc1ccc(Cl)cc1)c1ccccc1 (stereo not drawn) belongs to which category?
HIGH

Hi, small favor: classify `COc1cc(NS(C)(=O)=O)ccc1Nc1c2ccc(Cl)cc2nc2c(OC)cccc12` by its growth when you get a moment.
LOW

Determine which band this molecule sits in: `Cc1ccc(-c2cc(C(=O)Nc3ccc(S(=O)(=O)N4CCCCC4)cc3)[nH]n2)c(O)c1`
LOW

Where would `CC(=O)N(O)c1ccc(/C=C/c2ccccc2)cc1` land among the classes by reported growth?
MID

Lab log: `Fc1ccc(Nc2ccnc(N3CCN(c4ccnc5cc(Cl)ccc45)CC3)n2)cc1` — assign growth category
LOW

// bin(item) where item = `CS(=O)(=O)Nc1ccc(OCc2nnc(-c3ccc(Cl)cc3)o2)c(F)c1`
HIGH

Please classify: `CCCCCCCCCCCCc1ccc(C(=O)/C=C/C(=O)O)cc1`
LOW

Which bin should I file `Fc1ccc(-c2cc(C(Cl)Cl)no2)cc1` under?
HIGH

Which band does `COC(=O)[C@]12CC[C@@H](C)[C@H](C)[C@@H]1C1=CC[C@@H]3[C@@]4(C)C/C(=N\O)[C@H](O)[C@@]5(C)COC(=C45)C[C@@]3(C)[C@]1(C)CC2` fall in?
LOW

Consider `COc1cc(OC)cc(-c2n/c(=C\c3c(O)[nH]c4ccc(OC)cc34)cc3c2=Nc2ccccc2-3)c1` . To which growth class does it belong?
LOW

# bin lookup: classify `CC(C)c1[nH]nc2c(NCc3ccc(-c4ccccn4)cc3)nc(SCCN(C)C)nc12` by its growth
LOW

Please let me know in which category the item `COCc1cc2c(cc1Br)OCO2` belongs.
HIGH

Textbook exercise: identify the category of the molecule given here, `COc1ccc(-c2[nH]ncc2/C=C/c2cc(C(F)(F)F)[nH]c(=O)n2)cc1` , according to its measured value.
MID

# bin label for `C=CCc1cc(Nc2c3ccc(Cl)cc3nc3ccc(OC)cc23)cc(CN(CC)CC)c1O`
LOW

Where would Nc1ccc(C2=CC(c3ccc(Cl)cc3)N3C=CSC3=N2)cc1 (stereo not drawn) land among the classes by reported growth?
LOW

Lab note: which band did `COc1cc2ccnc(C=O)c2cc1OC` land in?
MID

Assign a category based on measured growth for O/N=C1\CCC2CCCCC2C1 (stereo not drawn) and give only the class name.
HIGH

Place this molecule in its band: `COc1ccc(CCc2nc3cc(-c4c(C)noc4C)ccc3n2CCN2CCOCC2)cc1`
LOW

Just checking, what class would you give `C/C(=N\NC(N)=S)C(C)(C)O` here?
MID

# bin label for `COc1ccc(-c2nnc(N3CCN(C(=O)CN4CCN(c5ccc(Cl)cc5)CC4)CC3)nc2-c2ccc(OC)cc2)cc1`
MID

Which bin should I file `O=C(Nc1ccc(OCc2nnc(-c3ccccc3)o2)c(F)c1)Nc1ccc(Cl)c(Cl)c1` under?
MID

Which band does `C/C(=N\NC(=S)N1CCCC1)c1ccccn1` fall in?
LOW

Which class holds CCCCCN(CCCCC)C(C)C(O)c1ccc2cc(Cl)c3ccccc3c2c1 (stereo not drawn) ?
MID

Which class holds `O=C(O)CCCN1C(=O)NC2(C1=O)c1ccccc1-c1ccccc12` ?
HIGH

Could you tell me which band `C=CCn1c(C)nc2cc(Nc3nc(Nc4ccc5nc(C)n(CC=C)c5c4)c4ccccc4n3)ccc21` belongs to?
LOW

Which class holds `CC(=O)CS(C)(=O)=O` ?
HIGH

Any idea which band `CCn1nc(-c2ccccn2)c2cccnc2c1=S` is in?
MID

Note: place this molecule into its band. Item: `NC(N)=NS(=O)(=O)c1ccc(Nc2ccc3nnc(-c4ccncc4)n3n2)cc1`
HIGH

Which bin should I file NC1CCC(Nc2nc(NCc3ccc(-c4cccs4)nc3)c3ncn(C4CCCC4)c3n2)CC1 (stereo not drawn) under?
LOW

Given `CC(=O)O[C@H]1CC[C@@]2(C)[C@@H](CC[C@@H]3[C@@H]2CC[C@]2(C)C=C(C=O)C[C@@H]32)C1` , name the class its growth places it in.
MID

Kindly identify the class of `N#CN1CC[C@H](C(=O)Nc2ncc(-c3ccccc3)s2)C1` .
LOW

Band assignment needed for CCCCOCC(=O)NC(NP(=O)(N(C)C)N(C)C)C(Cl)(Cl)Cl (stereo not drawn) please.
MID

Kindly identify the class of COc1ccc(C2C=C(c3ccc(Cl)cc3)N=C3SC=CN32)c(Br)c1 (stereo not drawn) .
MID

Note: place this molecule into its band. Item: COc1ccc(-c2nsc3c2NC(=O)CC3c2ccc(Cl)cc2)cc1 (stereo not drawn)
MID

The entry to classify is `O=C1/C(=C/c2ccc([N+](=O)[O-])s2)Oc2ccc(Cl)cc21` ; which class holds it?
LOW
